Tested on: SK-MEL-5 melanoma
Assay: NCI tumour cell line growth inhibition, 48 h
Measurement Label: TGI

Previously resolved entries follow.
- Compound: "COc1cc2c(cc1OC)C1(c3ccccc3)CN(C2)Cc2cc(OC)c(OC)cc21"
  TGI: "53.3 µM"
- Compound: "CCN(CC)CCNC(=O)c1cccc2cc3ccccc3nc12"
  TGI: "17.1 µM"
- Compound: "Cc1ccc(-n2c(Cn3nnc(-c4cccnc4)n3)nn(C3OC(COC(=O)c4ccccc4)C(OC(=O)c4ccccc4)C3OC(=O)c3ccccc3)c2=S)cc1 (stereo not given)"
  TGI: "> 100 µM"
- Compound: "NC(=O)C(NC=O)c1ccccc1 (stereo not given)"
  TGI: "> 100 µM"
- Compound: "C[C@@H](NC(=O)OC1C=CC2(CC1)C(=O)N(C)c1ccccc12)c1cccc2ccccc12 (stereo not given in full)"
  TGI: "> 25 µM"

Dear reader, for each entry below, please note its TGI.
1. C=C1CC(Cn2cc(C)c(=O)[nH]c2=O)(c2ccc(-c3ccccc3)cc2)OC1=O (stereo not given)
2. CC1OC(OC2CC(O)C3(CO)C4C(O)CC5(C)C(C6=CC(=O)OC6)CCC5(O)C4CCC3(O)C2)C(O)C(O)C1O (stereo not given)

1. 2.56 µM
2. 0.0267 µM

Dear reader, for each entry below, please note its TGI.
1. CC1(C)CN=C(Nc2ccc(Cl)cc2)S1
2. COc1ccc(N2C(=O)/C(=C\c3cccc(Oc4ccccc4)c3)S(=O)(=O)C2c2ccccc2)cc1 (stereo not given)
3. COC(=O)[C@@]1(C)CC[C@]2(C)CC[C@]3(C)C4=CC=C5C(=CC(=O)C(O)=C5C)[C@]4(C)CC[C@@]3(C)[C@@H]2C1

1. > 100 µM
2. 98.7 µM
3. 0.57 µM

Dear reader, for each entry below, please note its TGI.
1. CN1c2ccccc2S(=O)(=O)n2c(COc3ccc(Cl)cc3)nnc21
2. COC(=O)/C=C1/N=C(N(C)/N=C/c2ccccc2)NC1=O
3. CC1(C)C(=S)C(C)(C)C1=S
4. [N-]=[N+]=Nc1c([N+](=O)[O-])c(Cl)nc2ccccc12
5. CN(C)CCN=Cc1c2ccccc2c(=O)n2c1oc1ccccc12
6. CCOC(=O)c1c(C)n2c(=O)cc(C)c3c(OC(C)=O)c(OC(C)=O)cc1c32
7. O=C1/C(=C\c2coc3ccccc3c2=O)c2ccccc2N1c1c(Cl)cccc1Cl
8. CC1(C)C[C@H]2C=C(C=O)[C@]34C[C@]3(C(=O)OC4O)[C@H]2C1 (stereo not given in full)

1: > 100 µM; 2: > 100 µM; 3: > 100 µM; 4: 21.3 µM; 5: 16.1 µM; 6: 13.4 µM; 7: > 100 µM; 8: 9.32 µM

====

Tested on: OVCAR-4 ovarian
Assay: NCI tumour cell line growth inhibition, 48 h
Give TGI for every item shown.

Previously resolved entries follow.
- Molecule: "Cc1cccc2c(N)c3cccc(C(=O)NCCN(C)C)c3nc12"
  TGI: "18 µM"
- Molecule: "CCCN(CCC)CCCNC(=O)c1cc2c(-c3ccc(OC)c(OC)c3)nn(C)c2s1"
  TGI: "> 100 µM"
- Molecule: "c1ccc2c3c([nH]c2c1)C1c2[nH]c4ccccc4c2CCN1CC3"
  TGI: "18.7 µM"
- Molecule: "Nc1ccccc1NC(=O)c1ccc(CN2CCC/C(=C\\c3cccc(Cl)c3)C2=O)cc1"
  TGI: "> 100 µM"
- Molecule: "C[C@@H](NC(=O)OC1C=CC2(CC1)C(=O)N(C)c1ccccc12)c1cccc2ccccc12 (stereo not given in full)"
  TGI: "> 25 µM"
- Molecule: "O=c1c2ccccc2c(=O)c2c1cc(Cl)c1[nH]c3c([nH]c12)c(Cl)cc1c(=O)c2ccccc2c(=O)c13"
  TGI: "> 100 µM"
- Molecule: "C=C(C)[C@@]1(O)CCC[C@H]1NC(=O)OC(C)(C)C"
  TGI: "> 100 µM"
- Molecule: "O=C1C2CCC(C2)C12CC1(c3ccccc3)C(=O)c3ccccc3N1O2 (stereo not given)"
  TGI: "> 100 µM"

Dear reader, for each entry below, please note its TGI.
1. COC(=O)/C=C1/N=C(N(C)/N=C/c2ccccc2)NC1=O
2. CN(C)CCNC(=O)c1cccc2nc3cccc(F)c3nc12

1. > 100 µM
2. 4.83 µM

====

Give GI50 for every item shown.
Test system: EKVX NSCLC
Assay: NCI tumour cell line growth inhibition, 48 h

Previously resolved entries follow.
- Compound: "CCC[CH2][Sn]([CH2]CCC)([O]C(=O)c1nccnc1N)[O]C(=O)c1nccnc1N"
  GI50: "1.02 µM"
- Compound: "N#Cc1c(NC(=O)CN2CCOCC2)sc2c1CCCC2"
  GI50: "> 25 µM"
- Compound: "C#CCNC(=O)CC[C@]1(C)[C@H]2CC[C@@H]3[C@@H]([C@@](C)(O)CCC=C(C)C)CC[C@@]3(C)[C@]2(C)CC[C@H]1C(=C)C"
  GI50: "47.9 µM"
- Compound: "O=C(c1cccs1)c1c(C(F)(F)F)n([O-])c2ccc(F)cc2[n+]1=O"
  GI50: "1.69 µM"
- Compound: "CCOC(=O)C1=C(C)NC2SC(=O)/C(=C\\c3ccccc3)N2C1c1ccccc1 (stereo not given)"
  GI50: "> 100 µM"
- Compound: "O=C1c2ccccc2-c2c1c1ccccc1c(=O)n2CCCN1CCN(CCCn2c3c(c4ccccc4c2=O)C(=O)c2ccccc2-3)CC1"
  GI50: "> 100 µM"
- Compound: "CN(C)CCCNc1nccc(-c2c(-c3ccc(F)cc3)nn3cc(C(F)(F)F)ccc23)n1"
  GI50: "18.8 µM"
- Compound: "COc1cc([C@@H]2c3cc4c(cc3[C@@H](O[C@@H]3O[C@@H]5CO[C@@H](c6cccs6)O[C@H]5[C@H](O)[C@H]3O)[C@H]3COC(=O)[C@H]23)OCO4)cc(OC)c1O"
  GI50: "4.1 µM"

Dear reader, for each entry below, please note its GI50.
1. CC(=O)OC[C@]12CC[C@@H]([C@@H](C)C(N)=O)[C@@H]1[C@H]1CC[C@@H]3[C@@]4(C)CC[C@H](OC(C)=O)C(C)(C)[C@@H]4CC[C@@]3(C)[C@]1(C)CC2
2. CC[CH2][Sn]([Cl])([Cl])[CH2]CC
3. Oc1cc(O)c2c(=S)cc(-c3ccc(Cl)cc3)oc2c1
4. Cc1nc(/N=C(\N)NC(=O)Nc2ccccc2Cl)sc1C
5. COc1ccc(Cc2cnc(NC(=O)c3sc4ccccc4c3Cl)s2)cc1
6. CN(C)CCN=Cc1c2ccccc2c(=O)n2c1oc1ccccc12

["9.27 µM", "12.3 µM", "9.36 µM", "0.626 µM", "0.48 µM", "6.76 µM"]

Given the entry `COc1cc2c3c(n(CCN(C)C)c(=O)c2cc1OC)-c1cc2c(cc1C3=O)OCO2` , report its measured GI50.
37 µM

====

Test system: SK-MEL-28 melanoma
Assay: NCI tumour cell line growth inhibition, 48 h; in the data active = GI50 below about 0.43 µM; inactive = the rest
Could you please pick one outcome from this set? 1 for active, -1 for inactive

Hi, do you know how `CCOC(=O)c1c(C)n2c(=O)cc(C)c3c(OC(C)=O)c(OC(C)=O)cc1c32` came out in this test?
-1

Hi, do you know how COc1cc(C2CC(c3cc(C)ccc3C)=NN2c2ccc(S(=O)(=O)NC(=O)NCc3ccccc3)cc2)cc(OC)c1OC (centres undefined) came out in this test?
-1

Hi, do you know how `COc1cc([C@@H]2c3cc4c(cc3[C@@H](O[C@@H]3O[C@@H]5CO[C@@H](c6cccs6)O[C@H]5[C@H](O)[C@H]3O)[C@H]3COC(=O)[C@H]23)OCO4)cc(OC)c1O` came out in this test?
-1

Hi, do you know how CCN(CC)CCCC(Nc1c2ccc(Cl)cc2nc2ccc(OC)cc12)c1ccc(F)cc1 (centres undefined) came out in this test?
-1

Hi, do you know how `COc1cc([C@@H]2c3cc4c(cc3[C@H](O)[C@H]3COC(=O)[C@H]23)OCO4)cc(OC)c1OC` came out in this test?
1

Hi, do you know how OC(COc1cccc2ccccc12)CN1CCN(c2ccccc2)CC1 (centres undefined) came out in this test?
-1

Hi, do you know how `CCOc1ccc(/C=C/[N+](=O)[O-])cc1` came out in this test?
-1

Hi, do you know how `CN(C)CCN=Cc1c2ccccc2c(=O)n2c1oc1ccccc12` came out in this test?
-1

Hi, do you know how `Nc1ccccc1NC(=O)c1ccc(CN2CCC/C(=C\c3cccc(Cl)c3)C2=O)cc1` came out in this test?
-1

====

System: RXF 393 renal
Assay: NCI tumour cell line growth inhibition, 48 h
Give GI50 for every item shown.

- Structure String: "O=C1/C(=C\\c2coc3ccccc3c2=O)c2ccccc2N1c1c(Cl)cccc1Cl"
  GI50: "1.86 µM"
- Structure String: "C#CCNC(=O)CC[C@]1(C)[C@H]2CC[C@@H]3[C@@H]([C@@](C)(O)CCC=C(C)C)CC[C@@]3(C)[C@]2(C)CC[C@H]1C(=C)C"
  GI50: "26.2 µM"
- Structure String: "CCCN(CCC)CCCNC(=O)c1cc2c(-c3ccc(OC)c(OC)c3)nn(C)c2s1"
  GI50: "10.7 µM"
- Structure String: "CC[O-].Cc1ccc2cccc([O-])c2n1.Cc1ccc2cccc([O-])c2n1.Cc1ccc2cccc([O-])c2n1.[Ti+4]"
  GI50: "30.9 µM"
- Structure String: "COC(=O)Nc1nc2cc3c(cc2s1)OCCO3"
  GI50: "> 50 µM"

Dear reader, for each entry below, please note its GI50.
1. O=C1c2ccccc2-c2c1c1ccccc1c(=O)n2CCCN1CCN(CCCn2c3c(c4ccccc4c2=O)C(=O)c2ccccc2-3)CC1
2. Nc1ccccc1NC(=O)c1ccc(CN2CCC/C(=C\c3cccc(Cl)c3)C2=O)cc1
3. COc1ccc(-c2nn(-c3cccc(NC(=O)Nc4cc(C(F)(F)F)cc(C(F)(F)F)c4)c3)cc2-c2ccncc2)cc1Cl

["46.2 µM", "0.277 µM", "0.849 µM"]

Every entry's value here was drawn from PubChem BioAssay (NCI).
